Assay: Half life in rat at 3.9 mg/kg, iv
Assay type: ADME, organism-based
Settings: in vivo
assay endpoint: half-life (min)
Numbers only, in min.

Query Cc1nc(NNC(=O)[C@H](CC2CCCC2)CN(O)C=O)c(F)c(N2CCN3CCOC[C@@H]3C2)n1 [LANOPEPDEN] yields half-life of 42

====

Assign solubility kinetic to each entry below.
Assay: Solubility of compound by chemiluminescent nitrogen detection assay
Format: physicochemical

Observe how each entry below is paired with its result.
>>> measured_result("CN(C)c1cc(NC(=O)[C@@H]2CCCNN2C(=O)[C@H](CC2CCCC2)CN(O)C=O)ncn1")
"> 649 µM"
>>> measured_result("Cc1nc(NC(=O)[C@@H]2CCCNN2C(=O)[C@H](CC2CCCC2)CN(O)C=O)sc1C")
"381 µM"
>>> measured_result("Cc1cccnc1NC(=O)[C@@H]1CCCNN1C(=O)[C@H](CC1CCCC1)CN(O)C=O")
"483 µM"

Please go through the list and note solubility kinetic for each compound.
1. CN(C(=O)[C@@H]1CCCNN1C(=O)[C@H](CC1CCCC1)CN(O)C=O)c1ccccn1
2. O=CN(O)C[C@@H](CC1CCCC1)C(=O)N1NCCC[C@H]1C(=O)Nc1cccnn1

Key:
["> 657 µM", "303 µM"]

Please go through the list and note solubility kinetic for each compound.
1. O=CN(O)C[C@@H](CC1CCCC1)C(=O)N1NCCC[C@H]1C(=O)Nc1ccccc1
2. CN1CCN(c2cc(NC(=O)[C@@H]3CCCNN3C(=O)[C@H](CC3CCCC3)CN(O)C=O)ncn2)CC1
3. CN(C)c1cncc(NC(=O)[C@@H]2CCCNN2C(=O)[C@H](CC2CCCC2)CN(O)C=O)n1
4. O=CN(O)C[C@@H](CC1CCCC1)C(=O)N1NCCC[C@H]1C(=O)Nc1ccc(F)cn1

Key:
1: > 534 µM; 2: > 573 µM; 3: > 515 µM; 4: > 739 µM

====

Assay: Chromatographic hydrophobicity index, log D of compound at pH 7.4
Format: physicochemical
Conditions: buffer
Assign CHI to each entry below.
Give bare numbers.

Observe how each entry below is paired with its result.
>>> measured_result("CN(C)c1cncc(NC(=O)[C@@H]2CCCNN2C(=O)[C@H](CC2CCCC2)CN(O)C=O)n1")
3.65
>>> measured_result("Cc1ccc(NC(=O)[C@@H]2CCCNN2C(=O)[C@H](CC2CCCC2)CN(O)C=O)nc1")
4.1

Please go through the list and note CHI for each compound.
1. CN(C(=O)[C@@H]1CCCNN1C(=O)[C@H](CC1CCCC1)CN(O)C=O)c1ccccn1
2. Cc1ccnc(NC(=O)[C@@H]2CCCNN2C(=O)[C@H](CC2CCCC2)CN(O)C=O)c1
3. CN(C)c1cccc(NC(=O)[C@@H]2CCCNN2C(=O)[C@H](CC2CCCC2)CN(O)C=O)n1
4. O=CN(O)C[C@@H](CC1CCCC1)C(=O)N1NCCC[C@H]1C(=O)Nc1cccc2c1COB2O
5. CN(C)c1cc(NC(=O)[C@@H]2CCCNN2C(=O)[C@H](CC2CCCC2)CN(O)C=O)ncn1
6. O=CN(O)C[C@@H](CC1CCCC1)C(=O)N1NCCC[C@H]1C(=O)Nc1cccnn1

Key:
[3.3, 4.05, 4.88, 3.2, 3.38, 2.69]

====

Assay: Clearance in rat at 3 mg/kg, iv
Type: ADME, organism-based
Conditions: in vivo
Assign clearance to each entry below.
Quote the value and follow it with the unit of measurement.

Observe how each entry below is paired with its result.
>>> measured_result("Cc1nc(NC(=O)[C@@H]2CCCNN2C(=O)[C@H](CC2CCCC2)CN(O)C=O)sc1C")
"49 mL/min/kg"
>>> measured_result("CN(C)c1cncc(NC(=O)[C@@H]2CCCNN2C(=O)[C@H](CC2CCCC2)CN(O)C=O)n1")
"73 mL/min/kg"

Next compound, clearance to be filled in.
Query "CCc1nnc(NC(=O)[C@@H]2CCCNN2C(=O)[C@H](CC2CCCC2)CN(O)C=O)s1" yields clearance of 20 mL/min/kg

====

Assign pIC50 to each entry below.
Molecular target: UniProt P68826
Assay: Inhibition of Staphylococcus aureus PDF by fluorescence detection assay
One number for each entry, as −log10 of the molar value.

Observe how each entry below is paired with its result.
>>> measured_result("CN(C)c1cccc(NC(=O)[C@@H]2CCCNN2C(=O)[C@H](CC2CCCC2)CN(O)C=O)n1")
7.70
>>> measured_result("CN1CCN(c2cc(NC(=O)[C@@H]3CCCNN3C(=O)[C@H](CC3CCCC3)CN(O)C=O)ncn2)CC1")
8.52

Please go through the list and note pIC50 for each compound.
1. O=CN(O)C[C@@H](CC1CCCC1)C(=O)N1NCCC[C@H]1C(=O)Nc1cccc2c1COB2O
2. CN(C)c1cncc(NC(=O)[C@@H]2CCCNN2C(=O)[C@H](CC2CCCC2)CN(O)C=O)n1
3. Cc1cccnc1NC(=O)[C@@H]1CCCNN1C(=O)[C@H](CC1CCCC1)CN(O)C=O
4. Cc1ccc(NC(=O)[C@@H]2CCCNN2C(=O)[C@H](CC2CCCC2)CN(O)C=O)nc1
5. Cc1ccnc(NC(=O)[C@@H]2CCCNN2C(=O)[C@H](CC2CCCC2)CN(O)C=O)c1
6. CN1CCN(c2cncc(NC(=O)[C@@H]3CCCNN3C(=O)[C@H](CC3CCCC3)CN(O)C=O)n2)CC1

Key:
1. 6.80
2. 8.30
3. 7.80
4. 8.70
5. 8.70
6. 8.00

Query "CN(C)c1cc(NC(=O)[C@@H]2CCCNN2C(=O)[C@H](CC2CCCC2)CN(O)C=O)ncn1" yields pIC50 of 9.00

====

Experiment: AUC in rat at 3.9 mg/kg, iv
Type: ADME, organism-based
Settings: in vivo
assay endpoint: AUC (ng·h/mL)
Numbers only, in ng·h/mL.

Query "Cc1nc(NNC(=O)[C@H](CC2CCCC2)CN(O)C=O)c(F)c(N2CCN3CCOC[C@@H]3C2)n1" yields AUC of 720

====

Assay: Inhibition of Streptococcus pneumoniae PDF by fluorescence detection assay
pIC50: −log10 of the molar value.
Label Y for high-side pIC50 (at or above 9) and N for low-side pIC50 (below it).

>>> group("Cc1cccnc1NC(=O)[C@@H]1CCCNN1C(=O)[C@H](CC1CCCC1)CN(O)C=O")
"N"

Here is another compound to look at.
Exercise: State whether the measured pIC50 reaches 9, counting equality as reaching it, for "Cc1ccnc(NC(=O)[C@@H]2CCCNN2C(=O)[C@H](CC2CCCC2)CN(O)C=O)c1"
Key: Y

====

Assay: Volume of distribution at steady state in rat at 3 mg/kg, iv
Assay type: ADME, organism-based
Conditions: in vivo, read-out: Vdss
Assign Vd to each entry below.
One number for each entry, in L/kg.

Observe how each entry below is paired with its result.
>>> measured_result("CCc1nnc(NC(=O)[C@@H]2CCCNN2C(=O)[C@H](CC2CCCC2)CN(O)C=O)s1")
4
>>> measured_result("Cc1nc(NC(=O)[C@@H]2CCCNN2C(=O)[C@H](CC2CCCC2)CN(O)C=O)sc1C")
1.6

Next molecule, Vd to be filled in.
Query "CN(C)c1cncc(NC(=O)[C@@H]2CCCNN2C(=O)[C@H](CC2CCCC2)CN(O)C=O)n1" yields Vd of 13

====

Molecular target: Peptide deformylase (Staphylococcus aureus)
Sequence (P68826 whole entry): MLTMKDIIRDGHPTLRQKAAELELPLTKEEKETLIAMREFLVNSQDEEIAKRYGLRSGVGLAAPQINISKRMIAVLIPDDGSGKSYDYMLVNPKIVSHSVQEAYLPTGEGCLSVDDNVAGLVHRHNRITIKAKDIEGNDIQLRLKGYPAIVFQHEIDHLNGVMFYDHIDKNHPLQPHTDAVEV
Assay: Inhibition of Staphylococcus aureus PDF by absorbance detection assay
Decide using IC50 alone. Strictly below 5 nM: Condition met. Equal to or above 5 nM: Condition not met.

Below, 4 molecules whose answers are already recorded.
>>> group("CCCNC(=O)[C@@H]1CCCNN1C(=O)[C@H](CC1CCCC1)CN(O)C=O")
"Condition not met"
>>> group("O=CN(O)C[C@@H](CC1CCCC1)C(=O)N1NCCC[C@H]1C(=O)Nc1ccc(F)cn1")
"Condition met"
>>> group("O=CN(O)C[C@@H](CC1CCCC1)C(=O)N1NCCC[C@H]1C(=O)Nc1cnccn1")
"Condition met"
>>> group("Cc1nc(NNC(=O)[C@H](CC2CCCC2)CN(O)C=O)c(F)c(N2CCN3CCOC[C@@H]3C2)n1")
"Condition not met"

Exercise: Given the entry "CCc1nnc(NC(=O)[C@@H]2CCCNN2C(=O)[C@H](CC2CCCC2)CN(O)C=O)s1" , would its reported IC50 be below 5 nM?
Key: Condition met

Exercise: Given the entry "O=CN(O)C[C@@H](CC1CCCC1)C(=O)N1NCCC[C@H]1C(=O)Nc1ccncn1" , would its reported IC50 be below 5 nM?
Key: Condition met

Exercise: Given the entry "O=CN(O)C[C@@H](CC1CCCC1)C(=O)N1NCCC[C@H]1C(=O)Nc1cccnn1" , would its reported IC50 be below 5 nM?
Key: Condition met

Exercise: Given the entry "O=CN(O)C[C@@H](CC1CCCC1)C(=O)N1NCCC[C@H]1C(=O)Nc1ccccn1" , would its reported IC50 be below 5 nM?
Key: Condition met

Exercise: Given the entry "O=CN(O)C[C@@H](CC1CCCC1)C(=O)N1NCCC[C@H]1C(=O)N1CCCCC1" , would its reported IC50 be below 5 nM?
Key: Condition not met

Exercise: Given the entry "CN(C(=O)[C@@H]1CCCNN1C(=O)[C@H](CC1CCCC1)CN(O)C=O)c1ccccn1" , would its reported IC50 be below 5 nM?
Key: Condition not met

Exercise: Given the entry "Cc1nc(NC(=O)[C@@H]2CCCNN2C(=O)[C@H](CC2CCCC2)CN(O)C=O)sc1C" , would its reported IC50 be below 5 nM?
Key: Condition met
